B1: HHH_rd2_0155 (parent)
chain: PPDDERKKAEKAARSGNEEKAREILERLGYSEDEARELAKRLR

# Variants of: B1
# Test summary: folding stability dG (cDNA display proteolysis); higher = more stable
# Run conditions: PBS, room temperature
Provide the reported folding stability dG of each item.
Give bare numbers, in kcal/mol.

Please review the following examples before continuing.
PPDDERKKAEKAARSGNEEKAREILERLGYSEDEAREIAKRLR [L38I] : 2.04
PPDDERKKAEKAAMSGNEEKAREILERLGYSEDEARELAKRLR [R14M] : 1.96
PPDDERKKAEKAARSGNEEKAREILERLGYSQDEARELAKRLR [E32Q] : 1.99

Kindly give each listed record's folding stability dG.
1. PPDDERKKARKAARSGNEEKAREILERLGYSEDEARELAKRLR [E10R]
2. PPDDERKNAEKAARSGNEEKAREILERLGYSEDEARELAKRLR [K8N]

output:
1: 2.03; 2: 1.99

The reported measurements were obtained from the MegaScale stability set (Tsuboyama et al. 2023).
